measuredOn: Dihydroorotate dehydrogenase (quinone), mitochondrial (Plasmodium falciparum (isolate 3D7))
assayOverview: PfDHODH enzyme inhibitors, primary screen, biochemical, C-terminal His tag, absorbance 600 nm (AID 1175);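 note: recombinant parasite enzyme with a five histidine tag at its C terminus; test concentration not given here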
details: DCIP absorbance 600 nm, higher = more signal, called active from +8 up or from −8 down
Category key, based on recorded composite z-score: low: < -0.8; moderate: ≥ -0.8 and < 0.05; high: ≥ 0.05

- molecule: "CCCCC(=C=CC[C@H](O)c1ccccc1OCCO)CCO"
  labelValue: "moderate"
- molecule: "CC[C@@H]1C=C(C(=O)O)[C@H](c2cccc(Cl)c2)N1S(=O)(=O)c1ccc(C)cc1"
  labelValue: "low"
- molecule: "COCCCNC(=O)[C@@]1(c2ccc([N+](=O)[O-])cc2)CC(=O)N(C2CCCCC2)[C@@H]1c1ccc(CO)cc1I"
  labelValue: "high"
- molecule: "[N-]=[N+]=NCc1ccccc1[C@H]1OC(c2ccc(OCCCO)cc2)=N[C@@]1(CCS(=O)(=O)c1ccccc1)C(=O)O"
  labelValue: "low"
- molecule: "C=CCNC(=O)[C@@H]1[C@H]2C(=O)O[C@H](c3ccccc3)[C@H](c3ccccc3)N2[C@H](c2ccc(OCCO)cc2)[C@@]12C(=O)N(C(=O)OCCOC)c1ccccc12"
  labelValue: "high"

Record COc1ccc([Si](C)(C)[C@H]2[C@H](CCO)O[C@@]3(C(=O)N(Cc4ccccc4)c4ccc(NC(=O)[C@H](C)O)cc43)[C@@H]2C)cc1 — which class?
high

For the record COc1ccc(-c2cc3c(c(CCc4ccccc4)n2)[Si](C(C)C)(C(C)C)O[C@H]3c2ccccc2)cn1 , report the class its composite z-score corresponds to.
moderate
